Where do the numbers come from? From patent US20070042946A1.

target: human α-thrombin (human, UniProt P00734 328-622); test: amidolytic assay, Tos-Gly-Pro-Arg-pNA hydrolysis by human α-thrombin, 25° C.; recombinant peptide
ASSAY_ENDPOINT: Ki

INSERT INTO assay_data (binder, assay_endpoint, assay_value) VALUES
  ('FNPRPQSHNDGDFEEIPEEYLQ (Tested as recombinant peptide (FN22^(a), released by CNBr from the MFH fusion) and as synthetic peptide; also called FN22^(a) (recombinant preparation)) [FN22]', 'Ki', '100 nM');

-- ask Could you tell me which Ki is on file for FDPRPQSHNDGDFEEIPEEYLQ (Tested as recombinant peptide (FD22^(a), released by CNBr from the MFH fusion) and as synthetic peptide; also called FD22^(a) (recombinant preparation)) [FD22] ?
-- reply 55 nM
